Reported values of Population Tubulin-Different-Phenotype (%) for individual entries
# System: Fibroblast
# protocol.notes: Multiplex assay against human fibroblast
# Assay type: toxicity, cell-based
# experimental.parameters: 24 h, 10 µM, compound concentration 10 uM, replicate 1
Express the result in % but write the number alone.

Check out these entries, answers already filled in.
[[record]]
molecule = "Cc1[nH]c(/C=C2\\C(=O)Nc3ccc(S(=O)(=O)N(C)c4cccc(Cl)c4)cc32)c(C)c1C(=O)N1CCN(C)CC1"
reading_unit = "%"
val = 97

[[record]]
molecule = "CNCc1ccc(-c2cc(-c3nc(-c4ccc(S(=O)(=O)C(C)C)cc4)cnc3N)on2)cc1"
reading_unit = "%"
val = 0

[[record]]
molecule = "Cl.N#Cc1ccc2[nH]cc(CCCCN3CCN(c4ccc5oc(C(N)=O)cc5c4)CC3)c2c1 [VILAZODONE HYDROCHLORIDE]"
reading_unit = "%"
val = 50


Attention now turns to another entry.
Please give measured Population Tubulin-Different-Phenotype (%) of the following entry: CN(C)CC#Cc1ccc(OCCCc2sc(N3CCc4cccc(C(=O)Nc5nc6ccccc6s5)c4C3)nc2C(=O)O)c(F)c1
76

====

# Test system: HEK-293T
# protocol.notes: Multiplex assay against HEK293T
# Type: toxicity, cell-based
# experimental.parameters: human, 12 h, 1 µM, compound concentration 1 uM, replicate 1
Reported values of Population Healthy Nuclei (%) for individual entries
Remember to follow the number with its unit.

Check out these entries, answers already filled in.
[[record]]
molecule = "C=CC(=O)Nc1ccc2ncnc(Nc3ccc(OCc4cccc(F)c4)c(Cl)c3)c2c1.Cc1ccc(S(=O)(=O)O)cc1"
val = "38%"

[[record]]
molecule = "C=CC(=O)Nc1cc2c(Nc3ccc(F)c(Cl)c3)ncnc2cc1OCCCN1CCOCC1.Cl.Cl [CANERTINIB DIHYDROCHLORIDE]"
val = "35%"


Attention now turns to another entry.
Please give measured Population Healthy Nuclei (%) of the following entry: CN1CCN(c2ccc(OC(F)(F)F)c(Nc3ncc4c(n3)-c3c(c(C(N)=O)nn3CCO)CC4)c2)CC1
36%

====

# System: U2OS
# protocol.notes: Multiplex assay against U2OS
# Type: toxicity, cell-based
# experimental.parameters: human, 12 h, 1 µM, compound concentration 1 uM, replicate 1
Tick Y if Population Normal (%) is 90% or greater. Tick N if Population Normal (%) is less than 90%.

[[record]]
molecule = "CC[C@H](C)C(=O)O[C@H]1C[C@@H](C)C=C2C=C[C@H](C)[C@H](CC[C@@H]3C[C@@H](O)CC(=O)O3)[C@H]21"
cat = "N"


I'd appreciate it if you could say whether O=C1NCN(c2ccccc2)C12CCN(CCCOc1ccc(F)cc1)CC2 [SPIRAMIDE] has Population Normal (%) at least equal to 90%.
Y

I'd appreciate it if you could say whether CCN(CC)CCCCNc1ncc2cc(-c3cc(OC)cc(OC)c3)c(NC(=O)NC(C)(C)C)nc2n1 has Population Normal (%) at least equal to 90%.
N

I'd appreciate it if you could say whether CN1CCN(c2ccc(OC(F)(F)F)c(Nc3ncc4c(n3)-c3c(c(C(N)=O)nn3CCO)CC4)c2)CC1 has Population Normal (%) at least equal to 90%.
Y

====

# System: HEK-293T
# protocol.notes: Multiplex assay against HEK293T
# Format: toxicity, cell-based
# experimental.parameters: human, 48 h, 10 µM, compound concentration 10 uM, replicate 1
Tick TRUE if Total Cell Count is 300 or greater. Tick FALSE if Total Cell Count is less than 300.

[[record]]
molecule = "CN(C)C(=O)/C(C#N)=C/c1ccc(-c2nc3cnc4[nH]ccc4c3n2C2CCCCC2)o1"
cat = "TRUE"

[[record]]
molecule = "CC(C)(O)CNc1ncc(-c2ccnc(Nc3ccnc(Cl)c3)n2)c(CC2CC2)n1"
cat = "TRUE"

[[record]]
molecule = "CN1CCN(c2ccc(OC(F)(F)F)c(Nc3ncc4c(n3)-c3c(c(C(N)=O)nn3CCO)CC4)c2)CC1 [ONVANSERTIB]"
cat = "FALSE"


I'd appreciate it if you could say whether Cc1[nH]c(/C=C2\C(=O)Nc3ccc(S(=O)(=O)N(C)c4cccc(Cl)c4)cc32)c(C)c1C(=O)N1CCN(C)CC1 has Total Cell Count at least equal to 300.
FALSE

I'd appreciate it if you could say whether Cn1cc(-c2[nH]c3cc(NC(=O)[C@H](N)C4CCCCC4)cc4c3c2C=NNC4=O)cn1 has Total Cell Count at least equal to 300.
TRUE

I'd appreciate it if you could say whether COc1ncc(-c2ccc3nccc(-c4ccnnc4)c3c2)cc1NS(=O)(=O)c1ccc(F)cc1F [OMIPALISIB] has Total Cell Count at least equal to 300.
FALSE
